# assayDetails: qHTS assay to identify small molecule agonists of H2AX - cell viability counter screen (AID 1224847); also: nearly all actives have a fitted effect of over 30% in size
# studyConditions: CHO-K1 viability, CellTiter-Glo luminescence, 3 h; series mostly up to 154 µM
# Excerpt: National Center for Advancing Translational Sciences [NCATS] NIH Chemical Genomics Center [NCGC] U.S. Environmental Protection Agency [EPA] National Institutes of Environmental Health Sciences [NIEHS] National Toxicology Program [NTP] U.S. Food and Drug Administration [FDA] HTRF phospho-H2AX (Ser139) assay (Cisbio Bioassays, US) enables the quantitative detection of the histone variant H2AX when phosphorylated on serine 139. […]
Records with an inconclusive call do not appear. The source made the active and inactive calls. Calls follow the shape of the full dose curve.
Give one outcome, nothing more. List: active, inactive

Prompt: // outcome(item) with item = CCCCC(CC)COC(=O)Cl (stereo unspecified)
Response: inactive

Prompt: So what was the verdict on CCN(N=O)C(N)=O in this test?
Response: inactive

Prompt: Fill in: this test's call for O=[N+]([O-])c1cccc2ccccc12 is ___
Response: inactive

Prompt: Given Nc1ccc(-c2ccccc2)cc1 , state the outcome it received in this test.
Response: inactive

Prompt: What is the recorded call for this compound in the test? CC(C)(OOC(C)(C)c1ccccc1)c1ccccc1
Response: active

Prompt: Please state the recorded outcome for this compound: COP(=S)(OC)Oc1ccc([N+](=O)[O-])cc1
Response: inactive

Prompt: Test call for this compound, please: CC(C)NC(C)C
Response: inactive

Prompt: Hello, I am checking results. What call was entered for Nc1ccc(Cl)c(Cl)c1 ?
Response: inactive

Prompt: Which outcome was entered for the compound CCN(CC)C(=O)SCc1ccc(Cl)cc1 in this test?
Response: inactive

Prompt: I'd appreciate the recorded outcome for C=CCc1ccc(OC)cc1 from this test.
Response: inactive

Prompt: Hi team, can someone confirm the assay call for C=CC(=O)OCCO ?
Response: inactive

Prompt: Per the records of this test, what outcome belongs to C=CCN(CC=C)C(=O)C(Cl)Cl ?
Response: inactive

Prompt: Given CCCCCCCCOC(=O)c1ccccc1C(=O)OCCCCCCCC , state the outcome it received in this test.
Response: inactive

Prompt: Entry Oc1cc(Cl)ccc1Cl : call = ?
Response: inactive

Prompt: How did this test come out for CCC(C)(C)c1ccc(O)cc1 ?
Response: active

Prompt: // outcome(item) with item = CCN(CC)N=O
Response: inactive
